system_under_test: catalytic domain of human Bub1 (amino acids 704-1085) (Homo sapiens)
Construct: catalytic domain of human Bub1 (amino acids 704-1085); His6 (N); made in house; host or cells: Hi5 insect cells
Sequence (O43683 704-1085): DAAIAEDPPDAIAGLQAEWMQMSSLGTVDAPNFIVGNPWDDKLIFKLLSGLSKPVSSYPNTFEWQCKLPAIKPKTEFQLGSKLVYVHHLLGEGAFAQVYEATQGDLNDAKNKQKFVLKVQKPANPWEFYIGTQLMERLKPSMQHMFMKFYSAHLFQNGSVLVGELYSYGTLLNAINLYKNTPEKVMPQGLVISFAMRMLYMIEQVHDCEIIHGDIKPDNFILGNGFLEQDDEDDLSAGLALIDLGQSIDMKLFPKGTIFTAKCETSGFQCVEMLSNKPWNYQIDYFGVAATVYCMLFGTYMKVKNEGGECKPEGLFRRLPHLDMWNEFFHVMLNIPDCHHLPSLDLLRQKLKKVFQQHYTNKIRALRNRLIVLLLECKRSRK
assay_text: Bub1 kinase assay (TR-FRET)
Type: biochemical
test_settings: TR-FRET; ATP 10 μM, peptide substrate 1 μM; 60 min at 22° C.; average or median if tested more than once; read-out: Inhibition of Bub1 kinase IC50
quantity: IC50 (nM)

Check out these entries, answers already filled in.
compound	units_symbol	IC50
CC(=O)Nc1cc(-c2[nH]c3c(c2Nc2ccc(C)cc2)C(=O)CN(C(=O)OC(C)(C)C)C3)ccn1	nM	363
CC(=O)N1CC(=O)c2c([nH]c(-c3ccncc3OCC(F)F)c2Nc2ccccc2)C1	nM	33
O=C1CNCc2[nH]c(-c3ccncc3OCC(F)(F)F)c(Nc3ccccc3)c21	nM	1020
CC(=O)Nc1cc(-c2[nH]c3c(c2Nc2ccccc2)C(=O)CNC3)ccn1	nM	154
O=C1CN(S(=O)(=O)c2ccccn2)Cc2[nH]c(-c3ccncc3)c(Nc3ccccc3)c21	nM	6
COC(=O)N1CC(=O)c2c([nH]c(-c3ccncc3OC)c2Nc2ccccc2)C1	nM	9

a. O=C1CN(S(=O)(=O)c2cnc[nH]2)Cc2[nH]c(-c3ccncc3)c(Nc3ccccc3)c21
b. O=C1CSCc2[nH]c(-c3ccncc3)c(Nc3ccccc3)c21
Please indicate which item has the smaller measured IC50: a versus b Give the label of your selection.
a

P. COc1cc(C(=O)Nc2cc(-c3[nH]c4c(c3Nc3ccccc3)C(=O)CNC4)ccn2)ccc1F
Q. CC(C)S(=O)(=O)N1CC(=O)c2c([nH]c(-c3ccncc3OCC(F)F)c2Nc2ccccc2)C1
Could you please tell me which of these two has the higher IC50: P or Q ? Give the label of your selection.
P

I. O=C(Nc1cc(-c2[nH]c3c(c2Nc2ccccc2)C(=O)COC3)ccn1)NC1CC1
II. CC(=O)Nc1cc(-c2[nH]c3c(c2Nc2ccc(F)cc2)C(=O)CN(C(=O)OC(C)C)C3)ccn1
Could you please tell me which of these two has the higher IC50: I or II ? Give the label of your selection.
I
(I: 98 nM, II: 25 nM)

A. CC(=O)Nc1cc(-c2[nH]c3c(c2Nc2ccccc2)C(=O)CN(C(=O)CCC(C)(C)C)C3)ccn1
B. CC(=O)Nc1cc(-c2[nH]c3c(c2Nc2ccc(F)cc2)C(=O)CN(C(C)=O)C3)ccn1
C. O=C1CNCc2[nH]c(-c3ccnc(NC(=O)[C@@H]4C[C@@H]4F)c3)c(Nc3ccccc3)c21 [Example 197]
Sort entries by IC50 from minimum to maximum value. Please write the labels in the order that was asked for.
B, C, A
(B: 16 nM, C: 40 nM, A: 63 nM)
